Tested on: Calvarial osteoblast
Assay: Induction of osteoblast differentiation in rat calvarial osteoblast assessed as increase in ALP activity using PNPP as substrate measured after 48 hrs
Assay type: functional, cell-based
Details: Rattus norvegicus, Calvarial osteoblast, 48 h
Give measured pEC50 for each item. Keep answers brief.
Numbers only, as −log10 of the molar value.

given_smiles	result_type	observed_measurement
CCc1cc(C2C3=C(CC(C)(C)CC3=O)OC3=C2C(=O)CC(C)(C)C3)cc2cc(C(=O)c3ccc(F)cc3)oc12	pEC50	5.10
Cc1cc(C2C3=C(CCCC3=O)OC3=C2C(=O)CCC3)cc2cc(C(=O)c3ccc(F)cc3)oc12	pEC50	12.09

Moving on to another compound below.
Incoming: Return the recorded pEC50 value; entry: CCc1cc(C2C3=C(CCCC3=O)OC3=C2C(=O)CCC3)cc2cc(C(=O)c3ccc(F)cc3)oc12
Outgoing: 8.12
